tested on: Nitrosomonas spp.; assay: Nitrification of ammonium in soil incubated at 25° C. (ammonium recovery, nitrate accumulation); settings: 0.10 ppm; week 16; soil 25° C.; 200 ppm N
Structures can show the parent of a compound that is named as a salt.
reportedEndpoint: Concentration of nitrate nitrogen (PPM)
Reply with just the number (in PPM).

Requested read-out: Concentration of nitrate nitrogen. Entry: CO[C@@H]1[C@@H](OC)[C@H](C)[C@@](O)(CC(=O)O)O[C@H]1[C@H](C)[C@H]1O[C@@]2(CC[C@@](C)([C@H]3CC[C@@](C)([C@@H]4O[C@@H]([C@H]5O[C@](C)(O)[C@H](C)C[C@@H]5C)C[C@@H]4O[C@@H]4C[C@H](OC)[C@@H](OC)[C@H](C)O4)O3)O2)C[C@H](O)[C@H]1C [Maduramicin monoammonium salt, Maduramicin]
153

Any idea what its Concentration of nitrate nitrogen is? The compound is CC[C@@]1([C@@H]2O[C@@H]([C@H]3O[C@@](O)(CO)[C@H](C)C[C@@H]3C)C[C@@H]2C)CC[C@H]([C@]2(C)CC[C@]3(C[C@H](O)[C@@H](C)[C@@H]([C@@H](C)[C@@H](OC)[C@H](C)C(=O)O)O3)O2)O1 [Monensin sodium salt, Monensin]
213

So what's the measured Concentration of nitrate nitrogen for this one? CC[C@@H](C(=O)[C@@H](C)[C@@H](O)[C@H](C)CCc1ccc(C)c(O)c1C(=O)O)[C@H]1O[C@](CC)([C@H]2CC[C@](O)(CC)[C@H](C)O2)C[C@@H]1C [Lasalocid sodium salt, Lasalocid]
223

Any idea what its Concentration of nitrate nitrogen is? The compound is CC[C@@H](C(=O)[C@@H](C)[C@@H](O)[C@H](C)[C@@H]1O[C@@H]([C@@H](CC)C(=O)O)CC[C@@H]1C)[C@H]1O[C@]2(C=C[C@@H](O)[C@]3(CC[C@@](C)([C@H]4CC[C@](O)(CC)[C@H](C)O4)O3)O2)[C@H](C)C[C@@H]1C [Salinomycin monosodium salt, Salinomycin]
233

* * *

tested on: Nitrosomonas spp.; experiment: Nitrification of ammonium in soil incubated at 25° C. (ammonium recovery, nitrate accumulation); settings: 0.10 ppm; week 1; soil 25° C.; 200 ppm N
Structures can show the parent of a compound that is named as a salt.
reportedEndpoint: Concentration of nitrate nitrogen (PPM)
Reply with just the number (in PPM).

Dear colleague, I am looking for the recorded Concentration of nitrate nitrogen of the following compound: CC[C@@H](C(=O)[C@@H](C)[C@@H](O)[C@H](C)[C@@H]1O[C@@H]([C@@H](CC)C(=O)O)CC[C@@H]1C)[C@H]1O[C@]2(C=C[C@@H](O)[C@]3(CC[C@@](C)([C@H]4CC[C@](O)(CC)[C@H](C)O4)O3)O2)[C@H](C)C[C@@H]1C [Salinomycin monosodium salt, Salinomycin]
20

Would you mind telling me what Concentration of nitrate nitrogen value was observed for CO[C@@H]1[C@@H](OC)[C@H](C)[C@@](O)(CC(=O)O)O[C@H]1[C@H](C)[C@H]1O[C@@]2(CC[C@@](C)([C@H]3CC[C@@](C)([C@@H]4O[C@@H]([C@H]5O[C@](C)(O)[C@H](C)C[C@@H]5C)C[C@@H]4O[C@@H]4C[C@H](OC)[C@@H](OC)[C@H](C)O4)O3)O2)C[C@H](O)[C@H]1C [Maduramicin monoammonium salt, Maduramicin] ?
20

What Concentration of nitrate nitrogen value was documented for this compound, CC[C@@H](C(=O)[C@@H](C)[C@@H](O)[C@H](C)CCc1ccc(C)c(O)c1C(=O)O)[C@H]1O[C@](CC)([C@H]2CC[C@](O)(CC)[C@H](C)O2)C[C@@H]1C [Lasalocid sodium salt, Lasalocid] ?
21

Quick one: Concentration of nitrate nitrogen for CC[C@@]1([C@@H]2O[C@@H]([C@H]3O[C@@](O)(CO)[C@H](C)C[C@@H]3C)C[C@@H]2C)CC[C@H]([C@]2(C)CC[C@]3(C[C@H](O)[C@@H](C)[C@@H]([C@@H](C)[C@@H](OC)[C@H](C)C(=O)O)O3)O2)O1 [Monensin sodium salt, Monensin] ?
17
